System Under Test: human OX1R (Homo sapiens (Human), UniProt O43613)
Sequence (O43613 whole entry): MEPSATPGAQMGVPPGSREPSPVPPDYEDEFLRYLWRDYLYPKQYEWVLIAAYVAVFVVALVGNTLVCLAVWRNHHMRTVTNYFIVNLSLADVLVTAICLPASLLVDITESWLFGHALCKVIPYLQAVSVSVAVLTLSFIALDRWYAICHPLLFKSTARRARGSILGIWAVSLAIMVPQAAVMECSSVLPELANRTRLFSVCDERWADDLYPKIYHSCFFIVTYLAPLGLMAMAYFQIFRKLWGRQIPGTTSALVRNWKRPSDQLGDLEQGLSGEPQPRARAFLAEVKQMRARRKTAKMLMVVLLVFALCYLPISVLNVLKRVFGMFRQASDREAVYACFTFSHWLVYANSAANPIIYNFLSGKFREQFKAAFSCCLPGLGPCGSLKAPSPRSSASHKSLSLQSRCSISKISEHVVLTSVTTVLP
Measurement Notes: Measurement of antagonistic activity against orexin receptors (intracellular calcium, CHOOX1R cells)
Format: cell-based
Readout Label: IC50 (µM)

Item Smiles	Unit Of Measure	Numeric Readout
COc1ccc2c3c1O[C@H]1[C@H](N(C)C(=O)/C=C/c4ccoc4)CC[C@@]4(O)[C@@H](C2)N(S(=O)(=O)c2ccccc2)CC[C@]314	µM	0.0828
COc1ccc2c3c1O[C@H]1[C@H](N(C)C(=O)/C=C/c4ccccn4)CC[C@@]4(O)[C@@H](C2)N(S(=O)(=O)c2ccccc2N(C)C)CC[C@]314	µM	0.00361
